Every entry's value here was drawn from patent US7723356B2.

# Test system: human muscarinic acetylcholine M3 receptor (Homo sapiens, UniProt P20309)
# Construct: expressed in transfected cells; host or cells: CHO cells (stably transfected), membrane preparation
# Sequence (P20309 whole entry): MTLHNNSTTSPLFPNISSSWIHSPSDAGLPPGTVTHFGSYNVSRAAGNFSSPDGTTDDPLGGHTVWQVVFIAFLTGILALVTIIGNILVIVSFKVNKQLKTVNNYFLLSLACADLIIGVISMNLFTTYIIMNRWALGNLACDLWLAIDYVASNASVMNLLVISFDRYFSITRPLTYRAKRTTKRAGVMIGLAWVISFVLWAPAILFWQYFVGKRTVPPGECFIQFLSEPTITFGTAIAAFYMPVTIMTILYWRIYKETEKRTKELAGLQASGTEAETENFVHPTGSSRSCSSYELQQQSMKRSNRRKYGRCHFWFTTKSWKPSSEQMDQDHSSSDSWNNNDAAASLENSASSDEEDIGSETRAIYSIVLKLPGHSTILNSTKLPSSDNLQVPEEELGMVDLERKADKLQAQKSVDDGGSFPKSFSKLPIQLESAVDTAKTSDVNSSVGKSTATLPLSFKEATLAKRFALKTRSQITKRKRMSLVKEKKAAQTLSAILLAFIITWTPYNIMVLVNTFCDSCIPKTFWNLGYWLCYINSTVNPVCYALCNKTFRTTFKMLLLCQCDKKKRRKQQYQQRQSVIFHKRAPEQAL
# Protocol notes: competitive filtration binding assay with [3H] n-methyl scopolamine (NMS)
# Test parameters: M3 pKi, membranes from CHO cells stably transfected with human M3 receptor; [3H]NMS 0.25 nM
Measured Ki of individual entries
Respond with a number, then the unit of measure.

For orientation, consider the following solved cases.
- Compound: "O=C(C[N+]12CCC(CC1)[C@@H](OC(=O)C(O)(c1cccs1)C1CCCCC1)C2)Nc1ccon1 (stereo partly drawn) [Example 10]"
  Ki: "0.0115 nM"
- Compound: "O=C(C[N+]12CCC(CC1)[C@@H](OC(=O)C(O)(c1ccccc1)C1CCCC1)C2)Nc1ccon1 (stereo partly drawn) [Example 11]"
  Ki: "0.00631 nM"

// below: Ki requested for another compound
Q: Given O=C(C[N+]12CCC(CC1)[C@@H](OC(=O)C(O)(c1ccccc1)C1CCCCC1)C2)Nc1ccon1 (stereo partly drawn) [Example 8] , state its recorded Ki.
Ans: 0.0126 nM
